Value source: paper PMC10569638

target: zebrafish αβδε nAChR (ε-type) (Danio rerio, UniProt A2BG85+Q75XT1+Q98880); assay: TEVC inhibition of ACh-elicited nAChR current in Xenopus oocytes, ε-type; format: cell-based; conditions: inhibition, ε-type, 100 μM ACh, mean ± sem
Sequence (Q98880 21-456): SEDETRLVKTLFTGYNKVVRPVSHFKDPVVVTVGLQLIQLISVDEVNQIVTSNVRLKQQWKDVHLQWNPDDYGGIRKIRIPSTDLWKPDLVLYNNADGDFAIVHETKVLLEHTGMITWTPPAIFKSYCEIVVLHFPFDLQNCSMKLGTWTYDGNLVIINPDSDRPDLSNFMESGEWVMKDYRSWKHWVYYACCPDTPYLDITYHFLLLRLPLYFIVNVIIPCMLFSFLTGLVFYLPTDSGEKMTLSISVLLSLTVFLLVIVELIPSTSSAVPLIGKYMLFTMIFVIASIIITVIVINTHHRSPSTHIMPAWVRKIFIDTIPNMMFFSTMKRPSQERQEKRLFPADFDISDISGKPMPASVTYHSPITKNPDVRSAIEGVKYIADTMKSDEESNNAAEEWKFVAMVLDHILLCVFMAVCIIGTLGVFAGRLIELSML
Sequence (Q75XT1 22-518): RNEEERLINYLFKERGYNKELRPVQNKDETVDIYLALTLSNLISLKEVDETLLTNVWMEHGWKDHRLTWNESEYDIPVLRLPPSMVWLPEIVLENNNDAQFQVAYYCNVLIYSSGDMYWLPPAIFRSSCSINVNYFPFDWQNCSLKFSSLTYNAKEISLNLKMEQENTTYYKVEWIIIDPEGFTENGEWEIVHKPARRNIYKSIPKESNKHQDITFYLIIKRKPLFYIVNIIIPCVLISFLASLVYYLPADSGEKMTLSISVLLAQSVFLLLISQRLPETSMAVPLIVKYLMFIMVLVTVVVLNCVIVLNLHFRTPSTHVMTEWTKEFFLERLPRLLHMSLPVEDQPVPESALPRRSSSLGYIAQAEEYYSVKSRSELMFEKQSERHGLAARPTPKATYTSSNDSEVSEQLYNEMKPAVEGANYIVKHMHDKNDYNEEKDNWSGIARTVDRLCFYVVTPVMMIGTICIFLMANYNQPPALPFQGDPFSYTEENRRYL
Sequence (A2BG85 27-517): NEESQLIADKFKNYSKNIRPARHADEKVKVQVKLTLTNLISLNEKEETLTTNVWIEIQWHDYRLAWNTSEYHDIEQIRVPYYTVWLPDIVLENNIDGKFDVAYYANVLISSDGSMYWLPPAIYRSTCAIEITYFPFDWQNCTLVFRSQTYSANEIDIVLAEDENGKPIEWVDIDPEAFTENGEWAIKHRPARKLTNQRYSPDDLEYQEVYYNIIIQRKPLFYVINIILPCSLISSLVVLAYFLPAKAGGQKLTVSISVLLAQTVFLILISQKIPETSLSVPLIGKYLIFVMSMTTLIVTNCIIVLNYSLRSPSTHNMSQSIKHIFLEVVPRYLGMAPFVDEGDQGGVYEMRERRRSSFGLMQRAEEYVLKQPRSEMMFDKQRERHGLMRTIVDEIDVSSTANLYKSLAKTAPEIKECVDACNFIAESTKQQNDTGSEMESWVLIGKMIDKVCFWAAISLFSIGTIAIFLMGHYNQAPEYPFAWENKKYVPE
Sequence (G1FMP8 23-492 partner): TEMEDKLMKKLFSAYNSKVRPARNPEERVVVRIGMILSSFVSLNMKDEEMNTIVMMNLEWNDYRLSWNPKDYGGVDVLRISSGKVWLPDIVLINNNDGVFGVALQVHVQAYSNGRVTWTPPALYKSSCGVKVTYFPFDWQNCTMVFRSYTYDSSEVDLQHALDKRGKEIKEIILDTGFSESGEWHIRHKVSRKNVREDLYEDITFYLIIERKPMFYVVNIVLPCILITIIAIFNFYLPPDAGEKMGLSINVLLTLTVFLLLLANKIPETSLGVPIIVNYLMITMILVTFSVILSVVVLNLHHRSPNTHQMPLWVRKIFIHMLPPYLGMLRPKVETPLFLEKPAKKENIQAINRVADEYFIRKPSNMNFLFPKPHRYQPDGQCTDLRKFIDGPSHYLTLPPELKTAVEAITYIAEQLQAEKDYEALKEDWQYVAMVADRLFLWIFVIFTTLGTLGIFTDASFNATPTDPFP
Form field: Hill coefficient (one value per entry).
Kindly provide the number alone.

{"record smiles": "COc1cc2c3cc1Oc1cc(ccc1O)C[C@@H]1c4c(cc(OC)c(O)c4Oc4ccc(cc4)C[C@@H]3N(C)CC2)CC[N+]1(C)C", "Hill coefficient": 1.2}

input: Param readout = Hill coefficient; param system = zebrafish αβδε nAChR (ε-type) (Danio rerio, UniProt A2BG85+Q75XT1+Q98880); param query = "C=CC[N+]1([C@H]2C[C@H]3[C@@H]4CC[C@H]5C[C@H](O)[C@@H](N6CCOCC6)C[C@]5(C)[C@H]4CC[C@]3(C)[C@H]2OC(C)=O)CCCC1" ; response: value
output: 0.7

input: // fetch zebrafish αβδε nAChR (ε-type) (Danio rerio, UniProt A2BG85+Q75XT1+Q98880) Hill coefficient for "CC(=O)O[C@H]1C[C@@H]2CC[C@@H]3[C@H](CC[C@@]4(C)[C@H]3C[C@H]([N+]3(C)CCCCC3)[C@@H]4OC(C)=O)[C@@]2(C)C[C@@H]1[N+]1(C)CCCCC1"
output: 1.1

input: What value of Hill coefficient on zebrafish αβδε nAChR (ε-type) (Danio rerio, UniProt A2BG85+Q75XT1+Q98880) does "CC(=O)O[C@H]1C[C@@H]2CC[C@@H]3[C@H](CC[C@@]4(C)[C@H]3C[C@H]([N+]3(C)CCCCC3)[C@@H]4OC(C)=O)[C@@]2(C)C[C@@H]1N1CCCCC1" have?
output: 1.3
